target: pooled human IgG
readout: Enzyme Activity Endpoint Assay: IgG (ng/µL)
Write the value in ng/µL as a bare number.

PRT-35 (protein) MANQEIRYSEVTPYHVTSVWTKGVTPPANFTQGEDVFHAPYVANQGWYDITKTFNGKDDLLCGAATAGNMLHWWFDQNKDQIKRYLEEHPEKQKINFNGEQMFDVKEAIDTKDHQLDSKLFEYFKEKAFPYLSTKHLGVFPDHVIDMFINGYRLSLTNHGPTPVKEGSKDPRGGIFDAVFTRGDQSKLLTSRHDFKEKNLKEISDLIKKELTEGKALGLSHTYANVRINHVINLWGADFDSNGNLKAIYVTDSDSNASIGMKKYFVGVNSAGKVAISAKEIKEDNIGAQVLGLFTLSTGQDSWNQTN: 9

Data request: Give the value of Enzyme Activity Endpoint Assay: IgG reported for the following: PRT-10 (protein) MANQEIRYSEVTPYTVTSVWTKGVTPPANFTQGEDVFHAPYVANQGWYDITKTFNGKDDLLCGAATAGNMLHWWFDQNKEQIERYLKEHPEKQKINFNGEQMFDVKEAIDTKDSQLDSELFEYFKEKAFPYLSTKHLGVFPDHVIDMFINGYRLSLTNHGPTPVKEGSKDPRGGIFDAVFTRGDQSKLLTSRHDFKEKTLKEISDLIKKELTEGKALALSHTYANVRINHVINLWGADFDSEGNLEAIYVTDSDSNASIGMKKYFVGVNSAGKVAISAKEIEDDNIGAQVLGLFTLSTGQDIWNQTN
Data returned: 32
